Molecular target: WNV NS2B/NS3pro (West Nile virus, UniProt P06935)
Sequence (P06935 1420-1465): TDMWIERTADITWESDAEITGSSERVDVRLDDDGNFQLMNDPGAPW
Sequence (P06935 1502-1671): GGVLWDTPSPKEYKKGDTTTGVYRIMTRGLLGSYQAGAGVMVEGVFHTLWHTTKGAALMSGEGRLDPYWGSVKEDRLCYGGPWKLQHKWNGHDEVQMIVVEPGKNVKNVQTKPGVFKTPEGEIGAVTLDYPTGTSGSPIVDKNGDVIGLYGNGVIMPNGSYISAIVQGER
Assay: biochemical
Readout kind: IC50 (µM)
Answers are plain numbers, in µM.

molecule="CC(=O)Oc1cc(OC(C)=O)c2c(c1)O[C@H](c1cc(OC(C)=O)c(OC(C)=O)c(OC(C)=O)c1)[C@H](OC(=O)c1cc(OC(C)=O)c(OC(C)=O)c(OC(C)=O)c1)C2 [AcEGCG, EGCG octaacetate]" tested_target="WNV NS2B/NS3pro (West Nile virus, UniProt P06935)" readout_kind=IC50 value_observed=83.4

Now for a further molecule.
Observed IC50 on WNV NS2B/NS3pro (West Nile virus, UniProt P06935) for Oc1cc(O)c2c(c1)O[C@H](c1cc(O)c(O)c(O)c1)[C@H](O)C2 [EGC, epigallocatechin] , please. 17.3
